B1: H2-Kb / Ed28 (parent complex)
chain 1: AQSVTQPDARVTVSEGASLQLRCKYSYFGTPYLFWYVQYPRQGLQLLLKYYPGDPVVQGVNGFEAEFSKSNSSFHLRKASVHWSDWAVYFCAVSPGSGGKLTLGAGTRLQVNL
chain 2: DSGVVQSPRHIIKEKGGRSVLTCIPISGHSNVVWYQQTLGKELKFLIQHYEKVERDKGFLPSRFSVQQFDDYHSEMNMSALELEDSAMYFCASSPRASDYTFGSGTRLLVI
chain 3: not shown
chain 4: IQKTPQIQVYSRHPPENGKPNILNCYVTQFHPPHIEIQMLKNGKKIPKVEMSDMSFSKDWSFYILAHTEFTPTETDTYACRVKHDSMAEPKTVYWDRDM
chain 5: SIINFEKL

Variants of: B1
Test: % of reporter cells activated (NFAT-GFP), raw; note: test concentration or dose not given here
Catalogue of variants with associated ratio to parent
Write the number on its own, no unit after it.

# count of solved cases: 10
mutation_list="chain 5 N4E" reported_result=0.0544
mutation_list="chain 5 E6I" reported_result=0.0144
mutation_list="chain 5 L8Q" reported_result=0.602
mutation_list="chain 5 S1D" reported_result=0.536
mutation_list="chain 5 I2C" reported_result=1.15
mutation_list="chain 5 L8G" reported_result=0.947
mutation_list="chain 5 I3C" reported_result=0.894
mutation_list="chain 5 K7G" reported_result=0.185
mutation_list="chain 5 I3Y" reported_result=0.369
mutation_list="chain 5 N4Q" reported_result=0.00495

Shift focus to the following entry.
# ratio to parent of chain 5 I2D = 1.3
